Experiment: GPCRScan assay: inhibition of GABA/PBR
Design: species or system Rattus norvegicus; radioligand conc. used [nm] 0.3 – 2.0, parental cells brain tissue
endpoint_label: Ki (nM)
Response body: numeric value in nM, unit text excluded.

// sample CN(C)CC#Cc1ccc(OCCCc2sc(N3CCc4cccc(C(=O)Nc5nc6ccccc6s5)c4C3)nc2C(=O)O)c(F)c1 [A-1155463] , its Ki was 794

----------
Listing of recorded inhibition at 60 min, 10 µM by entry.
Target: UniProtKB P27338
Sequence (P27338 whole entry): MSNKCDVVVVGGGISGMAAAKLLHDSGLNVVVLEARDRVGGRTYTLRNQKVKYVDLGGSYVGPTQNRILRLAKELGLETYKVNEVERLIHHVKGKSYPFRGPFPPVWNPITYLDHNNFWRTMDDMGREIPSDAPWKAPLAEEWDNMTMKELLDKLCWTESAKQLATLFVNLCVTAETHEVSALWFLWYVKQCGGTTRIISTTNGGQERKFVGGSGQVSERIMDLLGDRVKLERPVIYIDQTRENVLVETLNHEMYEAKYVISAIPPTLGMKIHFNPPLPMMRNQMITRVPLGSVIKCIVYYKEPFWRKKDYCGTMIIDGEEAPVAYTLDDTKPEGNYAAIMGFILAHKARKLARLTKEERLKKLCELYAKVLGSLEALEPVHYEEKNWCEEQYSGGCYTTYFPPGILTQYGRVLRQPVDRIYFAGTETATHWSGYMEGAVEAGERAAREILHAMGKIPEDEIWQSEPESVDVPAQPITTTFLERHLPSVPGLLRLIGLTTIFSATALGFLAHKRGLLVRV
Assay: MAO-B (h) recombinant enzyme Eurofins-Cerep enzyme and uptake assay
Design: incubation time 60 min, incubation temperature 37°C, substrate/stimulus/tracer D-Luciferin derivative (4 µM)
Details: probe D-Luciferin derivative (4 µM), compound concentration 10 uM, read-out: % Inhibition of Control Values (Mean n=2)
Don't forget the unit after the value.

> print(dat)
                                        mol               endpoint.label  recorded.measurement
1  O=C(Nc1nc2ccccc2s1)c1cccc2c1CN(c1nc(C(=O)O)c(CCOc3ccc(-n4ncc5cncnc54)cc3)s1)CC2  inhibition at 60 min, 10 µM                   -2%

Consider the additional compound presented here.
# compound CN(C)CC#Cc1ccc(OCCCc2sc(N3CCc4cccc(C(=O)Nc5nc6ccccc6s5)c4C3)nc2C(=O)O)c(F)c1 ; its inhibition at 60 min, 10 µM = -2.2%
